# Assay target: SARM1 (50-724) (Homo sapiens (Human), UniProt Q6SZW1)
# Sequence (Q6SZW1 50-724): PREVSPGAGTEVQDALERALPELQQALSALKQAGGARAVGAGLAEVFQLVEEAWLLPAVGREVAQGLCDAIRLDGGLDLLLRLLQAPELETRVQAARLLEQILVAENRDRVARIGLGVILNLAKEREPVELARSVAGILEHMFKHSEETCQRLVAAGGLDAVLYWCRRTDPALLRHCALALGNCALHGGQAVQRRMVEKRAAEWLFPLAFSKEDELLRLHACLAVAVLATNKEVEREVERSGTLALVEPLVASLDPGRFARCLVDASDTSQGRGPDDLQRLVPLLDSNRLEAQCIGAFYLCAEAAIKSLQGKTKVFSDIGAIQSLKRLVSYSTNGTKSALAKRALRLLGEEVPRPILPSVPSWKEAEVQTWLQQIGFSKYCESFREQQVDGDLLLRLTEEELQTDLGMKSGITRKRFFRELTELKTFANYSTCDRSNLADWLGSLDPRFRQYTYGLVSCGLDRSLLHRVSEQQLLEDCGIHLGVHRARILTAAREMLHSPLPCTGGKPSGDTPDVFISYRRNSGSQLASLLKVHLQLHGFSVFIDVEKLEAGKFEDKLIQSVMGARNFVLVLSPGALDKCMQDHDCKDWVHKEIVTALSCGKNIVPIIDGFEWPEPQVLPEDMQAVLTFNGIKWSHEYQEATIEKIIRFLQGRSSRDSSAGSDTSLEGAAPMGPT
Experimental readout: IC50

Please review the entries below; each comes with its answer.
[
  {
    "Compound": "Cc1ccncc1-c1cncc(O)c1 [Compound 56, 4′-methyl-[3,3′-bipyridin]-5-ol]",
    "Value measured": "5 to 15 µM"
  },
  {
    "Compound": "O=c1[nH]c2ccc(-c3cncc(Nc4cncnc4)c3)cc2o1",
    "Value measured": "< 5 µM"
  }
]

Missing value: IC50, SARM1 (50-724) (Homo sapiens (Human), UniProt Q6SZW1), entry Cc1ccncc1-c1cc(O)cc(F)c1 . Fill in?
< 5 µM

Missing value: IC50, SARM1 (50-724) (Homo sapiens (Human), UniProt Q6SZW1), entry Cc1ccncc1-c1ccc(O)c(C#N)c1 . Fill in?
< 5 µM

---

Let's go through some IC50 measurements on SARM1 (50-724) (Homo sapiens (Human)) together.

[
  {
    "Compound": "O=c1[nH]c2ccc(-c3cncc(Nc4ccc(Cl)cc4)c3)cc2o1 [Compound 104]",
    "IC50": "< 5 µM"
  },
  {
    "Compound": "Cc1ccncc1-c1ccc(N)c(O)c1 [Compound 42, 2-amino-5-(4-methylpyridin-3-yl)phenol]",
    "IC50": "< 5 µM"
  }
]

Here is the next item to consider.
I am curious: what IC50 value has been reported for Cc1ccncc1-c1ccc(O)c(F)c1 [Compound 11, 2-fluoro-4-(4-methylpyridin-3-yl)phenol] ?
> 30 µM
